Molecular target: GLP-1 receptor (GLP-1R) (human, UniProt P43220 24-463)
Experiment: cell-based or functional assay
Starred links: 1 amine or outer side, 2 acyl side, 3 side chain; linkers in the order of their positions; H or OH if unused. Non-standard residues stand in square brackets, D forms with d. Groups on a side chain read outwards from the residue. Primed or numbered codes have the meaning given here. No end group written: not given here. *: point of attachment. Dodecanoyl(12-OPh(4-COOH)) = O=C(O)c1ccc(OCCCCCCCCCCCC(=O)*)cc1; γGlu = O=C(O)[C@H](CCC(=O)[*:2])N[*:1]; Stearoyl = CCCCCCCCCCCCCCCCCC(=O)*; αMeF = C[C@](N)(Cc1ccccc1)C(=O)O; αMeK = C[C@](N)(CCCCN)C(=O)O; αMeS = C[C@](N)(CO)C(=O)O; PEG2′ = not defined here; Aib = CC(C)(N)C(=O)O
quantityKind: cAMP Mean pM GLP-1R (pM)
Give the quantity in pM, number only.

>>> print(df.to_string())
                                     binder  observedmeasurement
0  H[Aib]EGS[αMeF]TSDV[αMeS]S[αMeF]LEGEAA[αMeK]E[αMeF]IA[αMeF]VVK([PEG2′-PEG2′-γGlu-Stearoyl])GG-NH2 [SEQ ID NO 101]                   55
1  H[Aib]EGS[αMeF]TSDV[αMeS]S[αMeF]LEGEAA[αMeK]E[αMeF]IK([PEG2′-PEG2′-γGlu-Stearoyl])[αMeF]VV[αMeK]GG-NH2 [SEQ ID NO 105]                   18
2  H[Aib]EGSK([PEG2′-PEG2′-γGlu-Stearoyl])TSDV[αMeS]S[αMeF]LEGEAA[αMeK]E[αMeF]IA[αMeF]VV[αMeK]GG-NH2 [SEQ ID NO 123]                 4660
3  H[Aib]EGS[αMeF]K([PEG2′-PEG2′-γGlu-Stearoyl])SDV[αMeS]S[αMeF]LEGEAA[αMeK]E[αMeF]IA[αMeF]VV[αMeK]GG-NH2 [SEQ ID NO 122]                25200
4  HK([PEG2′-PEG2′-γGlu-Stearoyl])EGS[αMeF]TSDV[αMeS]S[αMeF]LEGEAA[αMeK]E[αMeF]IA[αMeF]VV[αMeK]GG-NH2 [SEQ ID NO 127]                25100
5  H[Aib]EGS[αMeF]TSDV[αMeS]S[αMeF]LEGEAA[αMeK]E[αMeF]IAK([PEG2′-PEG2′-γGlu-Stearoyl])VV[αMeK]GG-NH2 [SEQ ID NO 104]                    5

Exercise: Need cAMP Mean pM GLP-1R, item H[Aib]EGS[αMeF]TSDV[αMeS]S[αMeF]LEGEAAK([PEG2′-Dodecanoyl(12-OPh(4-COOH))])E[αMeF]IA[αMeF]VV[αMeK]GG-NH2 [SEQ ID NO 143]
Key: 8.6

Exercise: Need cAMP Mean pM GLP-1R, item H[Aib]EGS[αMeF]TSDV[αMeS]S[αMeF]LEGEAA[αMeK]K([PEG2′-PEG2′-γGlu-Stearoyl])[αMeF]IA[αMeF]VV[αMeK]GG-NH2 [SEQ ID NO 108]
Key: 4

Exercise: Need cAMP Mean pM GLP-1R, item H[Aib]EGS[αMeF]TSDV[αMeS]S[αMeF]LEGEAAK([PEG2′-Stearoyl])E[αMeF]IA[αMeF]VV[αMeK]GG-NH2 [SEQ ID NO 152]
Key: 34.7
